Each item that follows carries a reported C50.
- MEASUREMENT_NOTES: Concentration required to reduce fluorescence in ethidium bromide displacement assay using EB-DNA complex
READOUT_NAME: C50 (µM)

>>> print(df.to_string())
                                        mol  value
0  CN1CCc2nc3ccccc3c(NCCCn3ccnc3[N+](=O)[O-])c2C1.Cl     45
1  Cl.O=[N+]([O-])c1nccn1CCCNc1c2c(nc3ccccc13)CCCC2     58
2  Cl.O=[N+]([O-])c1nccn1CCCNc1c2ccccc2nc2ccccc12      9
3  Cl.O=[N+]([O-])c1nccn1CCCNc1c2c(nc3ccccc13)CCSC2     58
